pIC50: −log10 of the molar value. Where a name gives a salt, the structure may show the parent alone.
Consider compounds characterized by their pIC50 with human PDE10A full length (Homo sapiens (Human)).
measuredAttribute: pIC50

compound | measurementTarget | result
Cn1ncc2c(N3CCOCC3)nc(OCc3cccc(N4CCCC4)n3)nc21 [Example 18] | human PDE10A full length (Homo sapiens (Human)) | 6.56
Cn1cc(-c2ccccc2)nc1CCc1cncc(N2CCCN2)n1 [Example 14, hydrochloride] | human PDE10A full length (Homo sapiens (Human)) | 6.92
Cc1nc(C)c(CCc2cccc(N3CCCC3)n2)nc1C [Example 8] | human PDE10A full length (Homo sapiens (Human)) | 6.22
CC1CCCN1c1cccc(CCc2nc(N(C)C)c3cc(Cl)ccc3n2)n1 (stereo not drawn) [Example 38] | human PDE10A full length (Homo sapiens (Human)) | 7.09
Cn1cc(-c2ccccc2)nc1CCc1cccc(N2CCCC2)n1 [Example 6] | human PDE10A full length (Homo sapiens (Human)) | 5.74
Cc1cccc2c(=O)[nH]c(CCc3cccc(N4CCCC4)n3)nc12 [Example 37] | human PDE10A full length (Homo sapiens (Human)) | 5.49
CN(C)c1nc(CCc2cccc(N3CCC(CO)C3)n2)nc2ccc(Cl)cc12 (stereo not drawn) [Example 33] | human PDE10A full length (Homo sapiens (Human)) | 6.82
COc1c(C)cnc(CCc2cccc(N3CCCC3)n2)c1C [Example 5] | human PDE10A full length (Homo sapiens (Human)) | 6.21
Cc1nc2ccccc2nc1OCc1cccc(N2CCCC2)n1 [Example 9] | human PDE10A full length (Homo sapiens (Human)) | 7.52

###

Consider compounds characterized by their IC50 with human PDE10A full length (Homo sapiens (Human)).
measuredAttribute: IC50 (nM)

compound | measuredAttribute | unitsLabel | result
CN(C)c1nc(/C=C/c2cccc(N3CCC(CO)C3)n2)nc2ccc(Cl)cc12 (stereo not drawn) | IC50 | nM | 220
Clc1ccc2nc(OCc3cccc(N4CCCC4)n3)nc(N3CCOCC3)c2c1 | IC50 | nM | 2.5
O=c1[nH]c(CCc2cccc(N3CCCC3)n2)nc2cccc(Cl)c12 | IC50 | nM | 400
Cc1oc(-c2ccccc2)nc1CCc1cccc(N2CCCC2)n1 | IC50 | nM | 2000
Cc1nc2ccccc2nc1OCc1cccc(N2CCCCC2)n1 | IC50 | nM | 1680
Cc1cc(C)n2nc(CCc3cncc(N4CCCC4)n3)nc2n1 | IC50 | nM | 300
CN(C)c1cccc(/C=C/c2nc(N(C)C)c3cc(Cl)ccc3n2)n1 | IC50 | nM | 750
Cn1cc(-c2ccccc2)nc1CCc1cccc(N2CCOCC2)n1 | IC50 | nM | 3140
Cc1nc2ccccc2nc1CCc1cccc(N2CCCC2)n1 | IC50 | nM | 120

###

Consider compounds characterized by their IC50 with human PDE10A full length (Homo sapiens (Human), UniProt Q9Y233).
Sequence (Q9Y233 other isoform, or with tags, fused parts or gaps): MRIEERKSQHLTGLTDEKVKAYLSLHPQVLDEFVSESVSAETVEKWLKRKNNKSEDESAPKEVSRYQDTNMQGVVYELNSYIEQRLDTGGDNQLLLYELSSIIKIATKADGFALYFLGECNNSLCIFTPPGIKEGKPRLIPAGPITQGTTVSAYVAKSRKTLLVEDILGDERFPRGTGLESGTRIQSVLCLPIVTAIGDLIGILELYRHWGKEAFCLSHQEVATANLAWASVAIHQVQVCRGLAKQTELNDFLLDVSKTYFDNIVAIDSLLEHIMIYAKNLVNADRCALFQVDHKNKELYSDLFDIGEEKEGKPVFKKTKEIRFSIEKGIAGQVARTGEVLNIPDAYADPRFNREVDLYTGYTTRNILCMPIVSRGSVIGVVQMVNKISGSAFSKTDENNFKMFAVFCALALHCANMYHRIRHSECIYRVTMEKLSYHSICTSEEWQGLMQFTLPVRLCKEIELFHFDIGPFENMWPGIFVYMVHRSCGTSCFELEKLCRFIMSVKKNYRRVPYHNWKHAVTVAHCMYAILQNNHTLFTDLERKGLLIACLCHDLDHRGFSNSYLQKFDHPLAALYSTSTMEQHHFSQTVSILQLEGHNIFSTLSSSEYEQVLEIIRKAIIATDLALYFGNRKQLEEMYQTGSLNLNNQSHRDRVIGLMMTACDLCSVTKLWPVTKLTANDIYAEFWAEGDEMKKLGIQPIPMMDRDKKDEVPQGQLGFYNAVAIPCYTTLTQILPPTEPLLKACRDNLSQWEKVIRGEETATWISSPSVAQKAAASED
measuredAttribute: IC50 (nM)

compound | measuredAttribute | result
CC1CCCN1c1cccc(/C=C/c2nc(N(C)C)c3cc(Cl)ccc3n2)n1 (centres unmarked) [Example 35] | IC50 | 27
c1cc(COc2cc(N3CCOCC3)nc(-c3ccn[nH]3)n2)nc(N2CCCC2)c1 [Example 23] | IC50 | 1080
c1cc(COc2nc(N3CCOCC3)c3ccccc3n2)nc(N2CCCC2)c1 [Example 16] | IC50 | 50
CN(C)c1nc(OCc2cccc(N3CCCC3)n2)nc2ccc(Cl)cc12 [Example 17] | IC50 | 7
Cc1nc2ccc(CCc3cccc(N4CCCC4)n3)nn2c1C [Example 49] | IC50 | 630

Origin of the recorded values: patent US9540384B2
